Biological target: GPR139 (Homo sapiens, UniProt Q6DWJ6)
Sequence (Q6DWJ6 whole entry): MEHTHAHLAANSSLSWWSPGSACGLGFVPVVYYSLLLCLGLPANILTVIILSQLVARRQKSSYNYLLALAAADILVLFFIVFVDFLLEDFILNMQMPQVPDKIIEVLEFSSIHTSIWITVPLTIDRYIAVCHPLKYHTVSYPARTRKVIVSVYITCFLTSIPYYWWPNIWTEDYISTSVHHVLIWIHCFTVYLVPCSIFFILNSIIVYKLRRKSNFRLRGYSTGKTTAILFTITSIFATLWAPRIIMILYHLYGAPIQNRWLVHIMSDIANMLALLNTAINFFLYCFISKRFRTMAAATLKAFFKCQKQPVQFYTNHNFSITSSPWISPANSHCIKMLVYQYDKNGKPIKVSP
Assay: GPR139 Antagonist titration assay (calcium detection, HEK-GPR139 cells, vs EC80 of S-JNJ-63533054)
Conditions: based on logD
metric: GPR139 Antagonist Activity Lipophilic Efficiency (logD)

Reference set (3 entries):
molecule	reported_value
Cc1cccc(NC(=O)CCC(=O)OCc2ccc(Br)cc2)c1 [SR-01000258561]	1.45
O=C(CCC(=O)OCc1ccc(Br)cc1)Nc1ccc(F)cc1 [SR-01000259336]	1.62
CCN1C(=O)c2cccc3c(S(=O)(=O)Nc4cccc(F)c4)ccc1c23 [SR-01000110577]	2.48

A = O=C(CCCC(=O)OCC(Cl)=C(Cl)Cl)Nc1ccccc1F [SR-01000195221]
B = CCOC(=O)c1c(C)nc2c(c1-c1ccc(F)cc1)C(=O)CC(c1ccc(Cl)cc1)C2 (centres unmarked) [SR-01000419112]
Form: Entry with minimum GPR139 Antagonist Activity Lipophilic Efficiency (logD) (choose one): A / B Give the chosen item's label as your response.
B
(B: 0.44, A: 1.71)

---

Tested on: parental HEK cells
Assay: HEK parental Agonist Counterscreen Assay (non-transfected cells)
Assay type: cell-based
Settings: HEK Agonist Activity; activity relative to known control
Source text: The high control for the agonist counterscreen was Forskolin not acetylcholine.
metric: Averaged Max % Response (±St. Dev.) (%)
Note: unit % is implicit; provide only the numeric part.

Averaged Max % Response (±St. Dev.) reported for this compound `Cc1cccc(Cc2cnc(NC(=O)CC(C)C)s2)c1` : 19.19

Averaged Max % Response (±St. Dev.) reported for this compound Cc1ccc(S(=O)(=O)NC(=O)NC(C)Cc2ccccc2)cc1 (stereo not shown) : −7.08

Averaged Max % Response (±St. Dev.) reported for this compound `COc1ccc(C2=NN(CC(=O)NCCCN(C)c3ccccc3)C(=O)CC2)cc1` : 2.57

Averaged Max % Response (±St. Dev.) reported for this compound COc1ccc(C2(C)NC(=O)C(CC(=O)NCCc3ccccc3)C2=O)cc1 (stereo not shown) : 9.27

Averaged Max % Response (±St. Dev.) reported for this compound CC(NC(=O)Cn1ncc2c(Cl)cccc21)c1ccc2c(c1)OCCO2 (stereo not shown) : −2.13

Averaged Max % Response (±St. Dev.) reported for this compound `COc1ccc(CCNC(=O)Nc2ccc3c(c2)CCCN3C(=O)C2CC2)cc1` : 32.19

Averaged Max % Response (±St. Dev.) reported for this compound COc1cc(C(C)=O)ccc1OCC(=O)NC(C)CCc1ccccc1 (stereo not shown) : 7.53

Averaged Max % Response (±St. Dev.) reported for this compound `O=C(Cn1ccc2ccccc21)NCCn1cnc(-c2ccccc2)cc1=O` : −3.24

Averaged Max % Response (±St. Dev.) reported for this compound CC(NC(=O)COC(=O)c1ccccc1C(F)(F)F)c1ccccc1 (stereo not shown) : 16.47

---

Target: GPR139 (Homo sapiens, UniProt Q6DWJ6)
Assay: GPR139 Agonist titration / agonist counterscreen assay (calcium detection, HEK-GPR139 cells)
Type: cell-based
Parameters: expressed in transfected cells; host or cells: HEK Aequorin cells, Maxcyte transient transfection
Conditions: GPR139 Agonist Activity
metric: Hill Slope

compound	Hill Slope
COc1cc(C(=O)NNC(=O)CCc2c[nH]c3ccccc23)ccc1OC(C)C	0.88
CC(C(=O)NCCn1nnn(-c2ccccc2)c1=O)n1nc2ccccc2n1 (centres unmarked)	0.90
O=C(Cn1ncn2cccc2c1=O)NCCc1ccc(Cl)cc1	0.89
Cc1ccc(Nc2cn[nH]c(=S)n2)c(C)c1	0.99
COc1cc(C(=O)NNC(=O)COc2ccc3ccccc3c2)cc(OC)c1OC	0.89
